- TARGET_OR_SYSTEM: PKC-theta (Homo sapiens, UniProt Q04759)
- Construct: His-tag; made in house; host or cells: baculovirus-infected Sf9 cells
- Sequence (Q04759 whole entry): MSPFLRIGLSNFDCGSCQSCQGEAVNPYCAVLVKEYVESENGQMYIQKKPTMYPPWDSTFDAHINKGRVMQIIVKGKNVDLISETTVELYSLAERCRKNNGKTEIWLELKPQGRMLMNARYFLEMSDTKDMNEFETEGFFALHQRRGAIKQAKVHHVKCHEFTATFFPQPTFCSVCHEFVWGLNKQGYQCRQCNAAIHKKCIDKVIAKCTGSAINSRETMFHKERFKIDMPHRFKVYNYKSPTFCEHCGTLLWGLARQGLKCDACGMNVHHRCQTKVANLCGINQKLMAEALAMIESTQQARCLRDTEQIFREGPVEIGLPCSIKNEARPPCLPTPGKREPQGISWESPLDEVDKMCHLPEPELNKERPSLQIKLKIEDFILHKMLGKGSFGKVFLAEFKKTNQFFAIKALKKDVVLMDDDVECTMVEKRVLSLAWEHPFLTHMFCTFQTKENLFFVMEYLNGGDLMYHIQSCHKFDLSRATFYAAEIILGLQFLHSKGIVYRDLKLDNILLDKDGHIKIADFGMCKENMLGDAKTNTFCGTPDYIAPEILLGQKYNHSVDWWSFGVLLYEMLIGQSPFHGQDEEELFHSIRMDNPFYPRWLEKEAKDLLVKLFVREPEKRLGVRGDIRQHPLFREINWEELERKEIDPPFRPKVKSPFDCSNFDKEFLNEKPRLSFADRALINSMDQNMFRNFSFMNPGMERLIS
- ASSAY_TEXT: In vitro kinase assay: peptide phosphorylation by PKC-theta
- Assay type: biochemical
- PROTOCOL_CONDITIONS: peptide concentration 1 uM
PROPERTY_MEASURED: phosphorylation by PKC theta
Give the value as a plain number.

Example results:
{"SUBSTANCE": "141 (VTDSQKRREILSRRPSYRKI) [compound 141]", "phosphorylation by PKC theta": 29}
{"SUBSTANCE": "148 (RELEQLKAEYLERRASRRRA) [compound 148]", "phosphorylation by PKC theta": 34}
{"SUBSTANCE": "156 (SAQITIPKDGQKRKKSLRKK) [compound 156]", "phosphorylation by PKC theta": 18}
{"SUBSTANCE": "152 (DLIEGRKGAQIVKRASLKRG) [compound 152]", "phosphorylation by PKC theta": 31}
{"SUBSTANCE": "120 (AKRRRLSSLRASTSK) [compound 120]", "phosphorylation by PKC theta": 51}
{"SUBSTANCE": "119 (KKRFSFKKSFKLSGFSFKKN) [compound 119]", "phosphorylation by PKC theta": 69}
{"SUBSTANCE": "124 (PRLIRRGSKKRPAR) [compound 124]", "phosphorylation by PKC theta": 53}
{"SUBSTANCE": "162 (KKKFSFKKPFKLSGLSFKRN) [compound 162]", "phosphorylation by PKC theta": 14}

So, 155 (RWDKRRWRKIPKRPGSVHRT) [compound 155] ? Its phosphorylation by PKC theta was 23

So, 127 (SQVQKQRSAGSFKRNSIKKI) [compound 127] ? Its phosphorylation by PKC theta was 45

So, 135 (KKKFRTPSFLKKSKK) [compound 135] ? Its phosphorylation by PKC theta was 30
